IC50 for assorted compounds
- assay-target: Endothelin receptor type B (Homo sapiens)
- Sequence (P24530 whole entry): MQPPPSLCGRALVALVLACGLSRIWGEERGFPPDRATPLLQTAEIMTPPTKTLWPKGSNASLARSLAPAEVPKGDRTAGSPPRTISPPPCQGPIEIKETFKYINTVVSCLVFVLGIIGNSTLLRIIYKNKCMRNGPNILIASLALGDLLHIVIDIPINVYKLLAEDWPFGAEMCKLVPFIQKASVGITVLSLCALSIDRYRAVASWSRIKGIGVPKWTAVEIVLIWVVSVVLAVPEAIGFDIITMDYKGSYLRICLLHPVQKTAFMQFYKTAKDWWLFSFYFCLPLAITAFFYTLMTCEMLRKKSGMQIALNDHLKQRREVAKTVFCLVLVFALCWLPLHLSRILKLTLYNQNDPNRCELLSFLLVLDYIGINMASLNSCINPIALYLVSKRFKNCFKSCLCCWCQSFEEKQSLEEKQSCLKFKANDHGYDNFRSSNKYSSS
- assay-remarks: Binding affinity against human cloned Endothelin B receptor expressed in CHO-K1 cells
- Assay type: cell-based

The cases that follow already have their IC50 on record.
>>> test_result("COc1ccc(C2(OC)OC(=O)C(c3ccc4c(c3)OCO4)=C2Cc2ccccc2)cc1 (stereo not drawn)")
"> 25000 nM"
>>> test_result("CCc1ccc(C2(O)OC(=O)C(c3ccc4c(c3)OCO4)=C2Cc2ccccc2)cc1 (stereo not drawn)")
"> 2500 nM"
>>> test_result("COc1ccc(C2(O)OC(=O)C(c3ccc4c(c3)OCO4)=C2Cc2ccccc2)c(OC)c1 (stereo not drawn)")
"> 2500 nM"
>>> test_result("COc1ccc(C2(O)OC(=O)C(c3cc(OC)c(OC)c(OC)c3)=C2Cc2ccccc2)cc1 (stereo not drawn)")
"1600 nM"
>>> test_result("COc1ccccc1C1(O)OC(=O)C(c2ccc3c(c2)OCO3)=C1Cc1ccccc1 (stereo not drawn)")
"> 2500 nM"

Proceeding to the next compound to report its IC50.
Req: Look up IC50 for this compound: COc1ccc(C2(O)OC(=O)C(c3ccc4c(c3)OCO4)=C2Cc2cccc(C(=O)O)c2)cc1 (stereo not drawn)
Resp: > 2500 nM

* * *

- assay-target: Endothelin-1 receptor (Homo sapiens)
- Sequence (P25101 whole entry): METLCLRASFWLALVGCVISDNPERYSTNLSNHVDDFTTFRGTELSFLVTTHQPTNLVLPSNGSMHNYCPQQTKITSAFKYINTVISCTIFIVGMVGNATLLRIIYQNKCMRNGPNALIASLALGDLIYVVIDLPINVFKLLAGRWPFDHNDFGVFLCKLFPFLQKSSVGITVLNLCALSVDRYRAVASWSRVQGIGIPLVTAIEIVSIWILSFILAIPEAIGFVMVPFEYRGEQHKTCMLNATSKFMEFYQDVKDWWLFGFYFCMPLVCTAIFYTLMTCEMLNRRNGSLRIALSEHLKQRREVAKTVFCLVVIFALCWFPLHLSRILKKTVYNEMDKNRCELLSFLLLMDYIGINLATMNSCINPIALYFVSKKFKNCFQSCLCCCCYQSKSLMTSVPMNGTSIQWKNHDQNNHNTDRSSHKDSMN
- assay-remarks: Binding affinity against human cloned endothelin A receptor expressed in LTK-cells
readout-label: IC50 (nM)

>>> test_result("COc1cc(C2(O)OC(=O)C(c3ccc4c(c3)OCO4)=C2Cc2ccccc2)cc(OC)c1OC (stereo not given)")
25

a: COc1ccc(C2(O)OC(=O)C(c3ccc4c(c3)OCO4)=C2Cc2cccc3c2CCc2ccccc2C3=O)cc1 (stereo not given)
b: COc1ccc(C2(O)OC(=O)C(c3ccc(OC)cc3OC)=C2Cc2ccccc2)cc1 (stereo not given)
c: COc1ccc(C2(O)OC(=O)C(c3ccc4c(c3)OCO4)=C2Cc2ccc(N(C)C)cc2)cc1 (stereo not given)
Req: Your job: order these 3 records by IC50, ascending. // rank by listing labels in the order requested
Resp: c, b, a

* * *

- assay-target: Endothelin-1 receptor (Homo sapiens)
- assay-remarks: Binding affinity against human cloned endothelin A receptor expressed in LTK-cells
readout-label: IC50 (nM)

The cases that follow already have their IC50 on record.
>>> test_result("COc1cccc(C2(O)OC(=O)C(c3ccc4c(c3)OCO4)=C2Cc2ccccc2)c1 (centres undefined)")
500
>>> test_result("COc1ccc(C2(O)OC(=O)C(c3ccc4c(c3)OCO4)=C2Cc2cccc(OC)c2)cc1 (centres undefined)")
3
>>> test_result("COc1ccc(C2(O)OC(=O)C(c3ccc4c(c3)OCO4)=C2Cc2ccc(SC)cc2)cc1 (centres undefined)")
3.9
>>> test_result("CCC1=C(c2ccc3c(c2)OCO3)C(=O)OC1(O)c1ccc(OC)cc1 (centres undefined)")
320
>>> test_result("COc1ccc(C2(OC)OC(=O)C(c3ccc4c(c3)OCO4)=C2Cc2cc(OC)c(OC)c(OC)c2)cc1 (centres undefined)")
600
>>> test_result("COc1ccc(C2(O)OC(=O)C(c3cc(OC)c4c(c3)OCO4)=C2Cc2ccccc2)cc1 (centres undefined)")
6.7

a: COc1ccc(C2(O)OC(=O)C(c3ccc4c(c3)OCO4)=C2Cc2ccc([N+](=O)[O-])cc2)cc1 (centres undefined)
b: COC(=O)c1ccc(C2(O)OC(=O)C(c3ccc4c(c3)OCO4)=C2Cc2ccccc2)cc1 (centres undefined)
c: COc1ccc(C2(O)OC(=O)C(c3cc(OC)ccc3OC)=C2Cc2ccccc2)cc1 (centres undefined)
Req: Your job: order these 3 records by IC50, ascending. // rank by listing labels in the order requested
Resp: c, b, a
